Test system: SEM cells
Assay: cell viability relative to DMSO control; higher = less cytotoxic
Details: RPMI 5 mM glucose + 10% FBS; 48 h; 5.12 µM
Listing of recorded cell viability by entry.

[
  {
    "Compound": "CC(C)C(=O)Nc1ccc([N+](=O)[O-])c(C(F)(F)F)c1",
    "cell viability": "123%"
  },
  {
    "Compound": "CC1(C)O[C@@H]2C[C@H]3[C@@H]4CCC5=CC(=O)C=C[C@]5(C)[C@H]4[C@@H](O)C[C@]3(C)[C@]2(C(=O)CO)O1",
    "cell viability": "65.2%"
  },
  {
    "Compound": "CCC(C)(Oc1ccc(C2(c3ccc(OC(C)(CC)C(=O)O)cc3)CCCCC2)cc1)C(=O)O (configuration not stated)",
    "cell viability": "104%"
  },
  {
    "Compound": "CNC[C@H](O)c1ccc(O)c(O)c1",
    "cell viability": "79.8%"
  },
  {
    "Compound": "CN1\\C(=C(\\O)C2=CC=CC=C2[S+]1([O-])=O)C(=O)NC3=NC=C(C)S3",
    "cell viability": "104%"
  },
  {
    "Compound": "COc1cc2ncnc(Nc3ccc(F)c(Cl)c3)c2cc1NC(=O)/C=C/CN1CCCCC1",
    "cell viability": "88.6%"
  },
  {
    "Compound": "Cc1c(NC(=O)OC[C@@H]2COCCN2)cn2ncnc(Nc3ccc4c(cnn4Cc4cccc(F)c4)c3)c12",
    "cell viability": "98.6%"
  }
]

###

Test system: SEM cells
Assay: cell viability relative to DMSO control; higher = less cytotoxic
Conditions: RPMI 5 mM glucose + 10% dialyzed FBS; 48 h; 0.569 µM
Readout Type: cell viability (%)

[
  {
    "Molecule": "CN(C)[C@H]\\1[C@@H]2C[C@H]3C(=C(O)\\[C@]2(O)C(=O)\\C(=C1O)C(N)=O)/C(=O)C4=C(O)C=CC=C4[C@@]3(C)O",
    "Readout Type": "cell viability",
    "Value Units": "%",
    "Data Value": 126
  },
  {
    "Molecule": "Cc1c(NC(=O)OC[C@@H]2COCCN2)cn2ncnc(Nc3ccc4c(cnn4Cc4cccc(F)c4)c3)c12",
    "Readout Type": "cell viability",
    "Value Units": "%",
    "Data Value": 88.5
  },
  {
    "Molecule": "CC[C@H](C)[N]1C=C(C)C2=C1C=C(C=C2C(=O)NC\\C3=C(C)\\C=C(\\C)NC3=O)C4=CC=C(N=C4)N5CCNCC5",
    "Readout Type": "cell viability",
    "Value Units": "%",
    "Data Value": 107
  },
  {
    "Molecule": "C[C@]12CCC(=O)C=C1CC[C@@H]1[C@@H]2CC[C@@]2(C)[C@H]1CC[C@]2(C)O",
    "Readout Type": "cell viability",
    "Value Units": "%",
    "Data Value": 107
  },
  {
    "Molecule": "Cc1cc(C(C)(C)C)c(O)c(C)c1CC1=NCCN1",
    "Readout Type": "cell viability",
    "Value Units": "%",
    "Data Value": 87.5
  },
  {
    "Molecule": "CC(C)NC[C@@H](C(=O)N1CCN(c2ncnc3c2[C@H](C)C[C@H]3O)CC1)c1ccc(Cl)cc1",
    "Readout Type": "cell viability",
    "Value Units": "%",
    "Data Value": 34.9
  },
  {
    "Molecule": "FC1=CC=C(SC/2=N/N3\\C=N/C(=O)/C(=C3/C=C2)C4=C(Cl)C=CC=C4Cl)C(=C1)F",
    "Readout Type": "cell viability",
    "Value Units": "%",
    "Data Value": 83.3
  },
  {
    "Molecule": "COc1cc2ncnc(Nc3ccc(F)c(Cl)c3)c2cc1NC(=O)/C=C/CN1CCCCC1",
    "Readout Type": "cell viability",
    "Value Units": "%",
    "Data Value": 104
  },
  {
    "Molecule": "C[C@@H]\\1CC(=O)N\\N=C1C2=CC=C(NN=C(C#N)C#N)C=C2",
    "Readout Type": "cell viability",
    "Value Units": "%",
    "Data Value": 72.8
  },
  {
    "Molecule": "S=P(N1CC1)(N1CC1)N1CC1",
    "Readout Type": "cell viability",
    "Value Units": "%",
    "Data Value": 93.6
  },
  {
    "Molecule": "OC(CN1CCC(Cc2ccc(F)cc2)CC1)c1ccc(Cl)cc1 (configuration not stated)",
    "Readout Type": "cell viability",
    "Value Units": "%",
    "Data Value": 140
  },
  {
    "Molecule": "C[C@]1(c2nc3c(C(N)=O)cccc3[nH]2)CCCN1",
    "Readout Type": "cell viability",
    "Value Units": "%",
    "Data Value": 84.5
  },
  {
    "Molecule": "O=C1c2c(O)ccc(O)c2C(=O)c2c(NCCNCCO)ccc(NCCNCCO)c21",
    "Readout Type": "cell viability",
    "Value Units": "%",
    "Data Value": 4.03
  },
  {
    "Molecule": "CN(NC(=O)CC(=O)NN(C)C(=S)c1ccccc1)C(=S)c1ccccc1",
    "Readout Type": "cell viability",
    "Value Units": "%",
    "Data Value": 4.03
  },
  {
    "Molecule": "C=C(C)[C@H]1Cc2c(ccc3c2O[C@@H]2COc4cc(OC)c(OC)cc4[C@@H]2C3=O)O1",
    "Readout Type": "cell viability",
    "Value Units": "%",
    "Data Value": 91.4
  },
  {
    "Molecule": "COCCCN1CCC(NC(=O)c2cc(Cl)c(N)c3c2OCC3)CC1",
    "Readout Type": "cell viability",
    "Value Units": "%",
    "Data Value": 116
  },
  {
    "Molecule": "Cc1ccc([S+](=O)([O-])N[C@@H](Cc2ccccc2)C(=O)CCl)cc1",
    "Readout Type": "cell viability",
    "Value Units": "%",
    "Data Value": 93.6
  },
  {
    "Molecule": "NC/1=N/C2=C([NH]C=N2)C(=S)N1",
    "Readout Type": "cell viability",
    "Value Units": "%",
    "Data Value": 81
  },
  {
    "Molecule": "NC(=O)c1ccc(I)c([N+](=O)[O-])c1",
    "Readout Type": "cell viability",
    "Value Units": "%",
    "Data Value": 116
  },
  {
    "Molecule": "CSCC[C@@H](NC(=O)[C@@H](Cc1ccccc1)NC(=O)CNC(=O)CNC(=O)[C@@H](N)Cc1ccc(O)cc1)C(=O)O",
    "Readout Type": "cell viability",
    "Value Units": "%",
    "Data Value": 92.3
  },
  {
    "Molecule": "Cc1cc2c(F)c(Oc3ncnn4cc(OC[C@@H](C)O)c(C)c34)ccc2[nH]1",
    "Readout Type": "cell viability",
    "Value Units": "%",
    "Data Value": 92.4
  },
  {
    "Molecule": "CC(C)C[C@H](NC(=O)[C@H](CCc1ccccc1)NC(=O)CN1CCOCC1)C(=O)N[C@@H](Cc1ccccc1)C(=O)N[C@@H](CC(C)C)C(=O)[C@@]1(C)CO1",
    "Readout Type": "cell viability",
    "Value Units": "%",
    "Data Value": 6.73
  },
  {
    "Molecule": "O=C(Nc1cc2cc[nH]c2cn1)c1ccccc1",
    "Readout Type": "cell viability",
    "Value Units": "%",
    "Data Value": 112
  },
  {
    "Molecule": "CCOC(=O)\\C1=C(/C)N\\C2=C(C1C3=CC=C(C=C3)C4=CC=CC=C4)\\C(=O)CC(C)(C)C2 (configuration not stated)",
    "Readout Type": "cell viability",
    "Value Units": "%",
    "Data Value": 97.5
  },
  {
    "Molecule": "CNC(=O)c1ccc(N2C(=S)N(c3ccc(C#N)c(C(F)(F)F)c3)C(=O)C23CCC3)cc1F",
    "Readout Type": "cell viability",
    "Value Units": "%",
    "Data Value": 96.3
  },
  {
    "Molecule": "NC\\1=N\\C(=O)N(\\C=C1)[C@@H]2O[C@H](CO)[C@@H](O)[C@H]2O",
    "Readout Type": "cell viability",
    "Value Units": "%",
    "Data Value": 154
  },
  {
    "Molecule": "CN(C)C1=CC=C(C=C1)C(C2=CC=C(C=C2)N(C)C)=C/3\\C=C/C(/C=C3)=[N+](C)C",
    "Readout Type": "cell viability",
    "Value Units": "%",
    "Data Value": 4.28
  },
  {
    "Molecule": "Cn1cnc2c1c(=O)[nH]c(=O)n2C",
    "Readout Type": "cell viability",
    "Value Units": "%",
    "Data Value": 108
  },
  {
    "Molecule": "O=C(Nc1ccccc1-c1cn2c(CN3CCNCC3)csc2n1)c1cnc2ccccc2n1",
    "Readout Type": "cell viability",
    "Value Units": "%",
    "Data Value": 79.5
  },
  {
    "Molecule": "O=C(Nc1ccc(F)c(C(F)(F)F)c1)Nc1nnc(-c2ccncc2)s1",
    "Readout Type": "cell viability",
    "Value Units": "%",
    "Data Value": 121
  },
  {
    "Molecule": "COC1=C2OC(=O)\\C=C/C2=CC3=C1OC=C3",
    "Readout Type": "cell viability",
    "Value Units": "%",
    "Data Value": 128
  },
  {
    "Molecule": "CCC[C@H]1C[C@H](C(=O)N[C@@H]([C@@H]2O[C@@H](SC)[C@@H](O)[C@@H](O)[C@H]2O)[C@H](C)Cl)N(C)C1",
    "Readout Type": "cell viability",
    "Value Units": "%",
    "Data Value": 110
  }
]
